Molecular target: T1, human ROR1 (Receptor Tyrosine Kinase-Like Orphan Receptor 1) on the cell surface (human, UniProt Q01973 30-937)
T1 construct: whole, on cells; engineered into B16-F10 (high density) and LS174T (low density) cells; also called B16-F10-ROR1-H; LS174T-ROR1-L
T1 sequence (Q01973 30-937): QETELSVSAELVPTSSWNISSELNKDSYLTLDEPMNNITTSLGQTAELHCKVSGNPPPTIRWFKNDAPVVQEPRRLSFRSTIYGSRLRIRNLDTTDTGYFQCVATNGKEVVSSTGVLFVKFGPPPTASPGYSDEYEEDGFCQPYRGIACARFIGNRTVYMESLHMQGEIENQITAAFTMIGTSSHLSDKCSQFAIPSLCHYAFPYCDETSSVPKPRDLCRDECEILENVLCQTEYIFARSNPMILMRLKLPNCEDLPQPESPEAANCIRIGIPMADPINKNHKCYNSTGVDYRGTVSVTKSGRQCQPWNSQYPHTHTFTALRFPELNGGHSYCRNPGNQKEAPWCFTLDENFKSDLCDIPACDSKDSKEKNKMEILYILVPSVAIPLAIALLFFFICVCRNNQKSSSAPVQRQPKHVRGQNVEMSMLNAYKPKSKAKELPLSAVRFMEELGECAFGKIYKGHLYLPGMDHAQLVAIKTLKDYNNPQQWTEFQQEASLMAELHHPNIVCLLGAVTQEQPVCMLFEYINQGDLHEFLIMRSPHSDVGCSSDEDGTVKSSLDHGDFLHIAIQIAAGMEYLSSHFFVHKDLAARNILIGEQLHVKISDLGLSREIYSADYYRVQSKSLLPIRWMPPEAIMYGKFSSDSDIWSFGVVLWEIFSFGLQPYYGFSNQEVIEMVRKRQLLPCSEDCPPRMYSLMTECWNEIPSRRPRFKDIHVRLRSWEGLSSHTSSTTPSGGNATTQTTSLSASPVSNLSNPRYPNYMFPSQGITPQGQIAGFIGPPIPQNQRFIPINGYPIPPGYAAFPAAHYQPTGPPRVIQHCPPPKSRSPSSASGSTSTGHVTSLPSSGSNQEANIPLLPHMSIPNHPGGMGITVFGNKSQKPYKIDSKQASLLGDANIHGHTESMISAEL
Assay: flow cytometry, B16-F10 cells expressing human ROR1 (high density)
Field: MFI. Provide a value for each of the binders that follow.

FUSE-594 (h5A1-FA9-HK6_Fc) (Fc fusion, VHH-Fc format; not shown: Fc of the VHH-Fc format) EVQLLESGGGLVPRGGSLRLSCTASGYTNRLKCMGWFRQAPGKEREEIASISTGTGNTYYADSVKGRFTISQDKSRNTLYLQMNSLKAEDTAVYYCAADVRPRGTTCHYNSRGQGTQVTVSS | 7910

Give a short answer stating reported MFI for FUSE-590 (h5A1-FA9-HK2_Fc) (Fc fusion, VHH-Fc format; not shown: Fc of the VHH-Fc format) EVQLLESGGGLVQRGGSLRLSCTASGYTNRLKCMGWFRQAPGKEREEIASISTGTGNTYYSDSVKGRFTISRDKSRNTLYLQMKSLRAEDTAVYYCAADVRPRGTTCHYNSRGQGTQVTVSS .
7330

Data origin: patent US20250313627A1
